This section presents compounds with their documented Ksv values.
- experimentalSystem: α-glucosidase (Saccharomyces cerevisiae, UniProt P53341)
- Sequence (P53341 whole entry): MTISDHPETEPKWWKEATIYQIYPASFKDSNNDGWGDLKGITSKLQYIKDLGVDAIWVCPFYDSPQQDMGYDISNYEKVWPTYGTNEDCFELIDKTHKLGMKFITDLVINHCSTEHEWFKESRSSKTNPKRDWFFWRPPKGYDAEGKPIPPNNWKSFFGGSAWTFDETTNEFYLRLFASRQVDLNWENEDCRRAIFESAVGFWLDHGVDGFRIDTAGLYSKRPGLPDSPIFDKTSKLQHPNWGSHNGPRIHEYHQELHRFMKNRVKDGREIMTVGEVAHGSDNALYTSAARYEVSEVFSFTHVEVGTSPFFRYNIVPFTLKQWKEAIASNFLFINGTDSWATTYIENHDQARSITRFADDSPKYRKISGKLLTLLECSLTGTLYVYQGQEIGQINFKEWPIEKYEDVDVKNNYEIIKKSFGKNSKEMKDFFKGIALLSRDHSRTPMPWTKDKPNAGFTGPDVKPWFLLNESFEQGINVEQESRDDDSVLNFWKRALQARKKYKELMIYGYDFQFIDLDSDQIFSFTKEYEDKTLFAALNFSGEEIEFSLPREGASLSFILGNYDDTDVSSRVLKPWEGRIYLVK
- testMethodNotes: Fluorescence quenching, binding and thermodynamics with α-glucosidase
- conditionsUsed: T 304 K
reportedEndpoint: Ksv

compound | experimentalSystem | dataValue
Oc1ccc(-c2c3nc(c(-c4ccc(O)cc4)c4ccc([nH]4)c(-c4ccc(O)cc4)c4nc(c(-c5ccc(O)cc5)c5ccc2[nH]5)C=C4)C=C3)cc1 [THPP] | α-glucosidase (Saccharomyces cerevisiae, UniProt P53341) | 6.97 ± 0.06 ×10^4 L/mol
Nc1ccc(-c2c3nc(c(-c4ccc(N)cc4)c4ccc([nH]4)c(-c4ccc(N)cc4)c4nc(c(-c5ccc(N)cc5)c5ccc2[nH]5)C=C4)C=C3)cc1 [TAPP] | α-glucosidase (Saccharomyces cerevisiae, UniProt P53341) | 5.71 ± 0.01 ×10^4 L/mol
O=C(O)c1ccc(-c2c3nc(c(-c4ccc(C(=O)O)cc4)c4ccc([nH]4)c(-c4ccc(C(=O)O)cc4)c4nc(c(-c5ccc(C(=O)O)cc5)c5ccc2[nH]5)C=C4)C=C3)cc1 [TCPP] | α-glucosidase (Saccharomyces cerevisiae, UniProt P53341) | 4.90 ± 0.02 ×10^4 L/mol
O=C(O)c1ccc(-c2c3nc(c(-c4ccc(C(=O)O)cc4)c4ccc([nH]4)c(-c4ccc(C(=O)O)cc4)c4nc(c(-c5ccc(C(=O)O)cc5)c5ccc2[nH]5)C=C4)C=C3)cc1.[Ni+2] [Ni–TCPP] | α-glucosidase (Saccharomyces cerevisiae, UniProt P53341) | 14.23 ± 0.09 ×10^4 L/mol
O=C(O)c1ccc(-c2c3nc(c(-c4ccc(C(=O)O)cc4)c4ccc([nH]4)c(-c4ccc(C(=O)O)cc4)c4nc(c(-c5ccc(C(=O)O)cc5)c5ccc2[nH]5)C=C4)C=C3)cc1.[Cu+2] [Cu–TCPP] | α-glucosidase (Saccharomyces cerevisiae, UniProt P53341) | 6.74 ± 0.03 ×10^4 L/mol
